target-desc: High affinity choline transporter 1 (Homo sapiens) (UniProt Q9GZV3)
Sequence (Q9GZV3 whole entry, looked up): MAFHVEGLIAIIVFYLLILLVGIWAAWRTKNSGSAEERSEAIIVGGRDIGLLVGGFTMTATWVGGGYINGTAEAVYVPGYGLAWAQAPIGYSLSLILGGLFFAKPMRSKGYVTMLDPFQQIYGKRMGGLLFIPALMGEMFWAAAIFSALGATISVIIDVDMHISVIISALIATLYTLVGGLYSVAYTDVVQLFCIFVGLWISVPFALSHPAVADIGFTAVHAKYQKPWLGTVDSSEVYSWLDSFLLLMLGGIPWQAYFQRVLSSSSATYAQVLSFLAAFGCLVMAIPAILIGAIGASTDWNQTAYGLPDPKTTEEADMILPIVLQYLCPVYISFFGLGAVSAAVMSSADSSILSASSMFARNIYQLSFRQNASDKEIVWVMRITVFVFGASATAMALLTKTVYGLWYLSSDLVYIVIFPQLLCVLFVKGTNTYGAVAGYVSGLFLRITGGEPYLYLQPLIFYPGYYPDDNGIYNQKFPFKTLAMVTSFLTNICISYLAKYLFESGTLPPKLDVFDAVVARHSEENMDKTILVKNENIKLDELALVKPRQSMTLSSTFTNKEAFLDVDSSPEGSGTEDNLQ
assay: human choline transporter blockers, potency – cell-based, 5-point CRC, membrane potential dye, dose response (AID 504840)
assay-context: HEK293-CHT, choline-induced depolarization, CHT with LV-to-AA double alanine mutation; series mostly up to 37 µM
The campaign covered roughly 1,500 compounds. About 890 (59%) were called active. So high a share suggests a set chosen from earlier hits. Only a sample is shown. Entries with a potency or affinity are not part of this list.

[
  {
    "compound": "CCc1cccc(CC)c1NC(=O)c1cccc(NC(=O)c2ccccc2)c1",
    "outcome": "inactive"
  },
  {
    "compound": "O=[N+]([O-])c1ccc(N2CCCCC2)nc1",
    "outcome": "inactive"
  },
  {
    "compound": "Cc1cccc(NC(=O)c2ccccc2O)c1C",
    "outcome": "inactive"
  },
  {
    "compound": "COc1ccc(/C=C/C(=O)NC2CCCCCCC2)cc1S(=O)(=O)N1CCOCC1",
    "outcome": "inactive"
  },
  {
    "compound": "O=C(Nc1ncc([N+](=O)[O-])s1)C1CC(=O)N(c2ccc(F)cc2)C1 (stereo unspecified)",
    "outcome": "inactive"
  },
  {
    "compound": "O=C(NNC1=C(C(=O)C(F)(F)F)CCC1)c1ccc(Cl)cc1",
    "outcome": "inactive"
  },
  {
    "compound": "Cc1cc(C)n2nc(SCc3cccc(S(=O)(=O)N(C)C)c3)nc2n1",
    "outcome": "inactive"
  },
  {
    "compound": "Cc1noc(NS(=O)(=O)c2ccc(NC(=O)c3oc4ccc(Cl)cc4c3C)cc2)c1C",
    "outcome": "inactive"
  },
  {
    "compound": "CC(=O)Nc1ccc(S(=O)(=O)Nc2nc3ccccc3nc2Nc2ccc(N)cc2)cc1",
    "outcome": "inactive"
  },
  {
    "compound": "CCc1c(C)nc2ncnn2c1N1CCN(S(=O)(=O)c2ccc(OC)cc2)CC1",
    "outcome": "inactive"
  },
  {
    "compound": "COc1ccc(-c2csc3ncnc(NCCCO)c23)cc1",
    "outcome": "inactive"
  }
]
